B1: 3'-5' exoribonuclease 1, residues 65 to 114; numbered along this chain, Q8IV48 (parent)
chain: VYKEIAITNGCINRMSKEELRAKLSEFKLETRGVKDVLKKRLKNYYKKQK

Variants of: B1
Experiment: abundance fitness (aPCA) (normalised: wild type 0, dead -1); higher = more abundant; growth selection in yeast, the domain comes from the species named
Conditions: Homo sapiens
Threshold check on abundance fitness: at or above -0.07 gives 1 (yes), strictly below gives 0 (no).

VGKEIAITNGCINRMSKEELRAKLSEFKLETRGVKDVLKKRLKNYYKKQK [Y2G]: 1 (yes)
VYKEHAITNGCINRMSKEELRAKLSEFKLETRGVKDVLKKRLKNYYKKQK [I5H]: 1 (yes)
VYKEIAITNGCINRMSKEELRAVLSEFKLETRGVKDVLKKRLKNYYKKQK [K23V]: 0 (no)
VYKEIAITNGCINRMSKDELRAKLSEFKLETRGVKDVLKKRLKNYYKKQK [E18D]: 1 (yes)
VYKEIAITNGCINRRSKEELRAKLSEFKLETRGVKDVLKKRLKNYYKKQK [M15R]: 0 (no)
VYKEIAITNGCINRMSKEELRAKLSEFKLQTRGVKDVLKKRLKNYYKKQK [E30Q]: 0 (no)
VYKEIQITNGCINRMSKEELRAKLSEFKLETRGVKDVLKKRLKNYYKKQK [A6Q]: 0 (no)
VYKEIAITNGCINRMSKEEGRAKLSEFKLETRGVKDVLKKRLKNYYKKQK [L20G]: 0 (no)

Pending variant:
**Query** Does VYKEIAITNGCINRMSKEELRAKLSEFKLETRGVCDVLKKRLKNYYKKQK [K35C] have a reported abundance fitness of at least -0.07?
**Result** 0 (no)
